Where these numbers come from: ChEMBL document CHEMBL1909046

# Measured on: Cannabinoid receptor 1 (Homo sapiens, UniProt P21554)
# Sequence (P21554 whole entry): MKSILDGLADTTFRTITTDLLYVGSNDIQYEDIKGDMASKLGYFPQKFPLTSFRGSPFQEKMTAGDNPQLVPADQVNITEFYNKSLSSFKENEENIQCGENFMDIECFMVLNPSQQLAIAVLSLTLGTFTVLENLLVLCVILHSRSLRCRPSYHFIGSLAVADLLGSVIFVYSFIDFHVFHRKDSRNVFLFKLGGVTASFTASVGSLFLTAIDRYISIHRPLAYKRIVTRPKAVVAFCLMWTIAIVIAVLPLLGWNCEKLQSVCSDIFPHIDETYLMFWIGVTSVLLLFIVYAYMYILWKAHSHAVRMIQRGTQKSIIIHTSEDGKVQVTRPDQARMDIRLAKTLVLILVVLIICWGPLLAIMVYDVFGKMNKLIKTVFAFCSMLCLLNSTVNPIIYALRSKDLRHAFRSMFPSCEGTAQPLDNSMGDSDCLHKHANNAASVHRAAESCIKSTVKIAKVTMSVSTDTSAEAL
# Assay type: cell membranes, Chem-1, Membrane
# Conditions used: chem-1
Assay readout: IC50

[[record]]
compound = "CCC1=C(C)CN(C(=O)NCCc2ccc(S(=O)(=O)NC(=O)N[C@H]3CC[C@H](C)CC3)cc2)C1=O [GLIMEPIRIDE]"
assay_readout = "IC50"
test_result = "Not Active"

[[record]]
compound = "CN1CCN(c2c(F)cc3c(=O)c(C(=O)O)cn(CCF)c3c2F)CC1"
assay_readout = "IC50"
test_result = "Not Active"

[[record]]
compound = "O=C(c1ccccc1F)N1CCC(Cc2ccccc2)CC1"
assay_readout = "IC50"
test_result = "Not Active"

[[record]]
compound = "O=c1[nH]c(=O)n([C@H]2C[C@H](O)[C@@H](CO)O2)cc1F"
assay_readout = "IC50"
test_result = "Not Active"

[[record]]
compound = "Cc1ccc(C)c(OCCCC(C)(C)C(=O)O)c1"
assay_readout = "IC50"
test_result = "Not Active"

[[record]]
compound = "CC(C)NC[C@@H](O)COc1cccc2ccccc12"
assay_readout = "IC50"
test_result = "Not Active"

[[record]]
compound = "CN1C[C@@H]2C[C@H]1CN2c1cc2c(cc1F)c(=O)c(C(=O)O)cn2C1CC1"
assay_readout = "IC50"
test_result = "Not Active"

[[record]]
compound = "CNC1=Nc2ccc(Cl)cc2C(c2ccccc2)=[N+]([O-])C1 [CHLORDIAZEPOXIDE]"
assay_readout = "IC50"
test_result = "Not Active"

[[record]]
compound = "CCCCCCCCNC(C)C(O)c1ccc(SC(C)C)cc1 (stereo not drawn)"
assay_readout = "IC50"
test_result = "Not Active"

[[record]]
compound = "CC1CCC(NC(=O)N(CCCl)N=O)CC1 (stereo not drawn)"
assay_readout = "IC50"
test_result = "Not Active"

[[record]]
compound = "CCCCC1=NC2(CCCC2)C(=O)N1Cc1ccc(-c2ccccc2-c2nnn[nH]2)cc1"
assay_readout = "IC50"
test_result = "Not Active"

[[record]]
compound = "CN1CCN(CCCN2c3ccccc3Sc3ccc(C(F)(F)F)cc32)CC1"
assay_readout = "IC50"
test_result = "Not Active"

[[record]]
compound = "Cc1ccc(C(=O)c2ccc(CC(=O)O)n2C)cc1"
assay_readout = "IC50"
test_result = "Not Active"

[[record]]
compound = "CN1CCCC(CN2c3ccccc3Sc3ccccc32)C1 (stereo not drawn)"
assay_readout = "IC50"
test_result = "Not Active"

[[record]]
compound = "NC(=O)c1cccc(N)c1 [3-AMINOBENZAMIDE]"
assay_readout = "IC50"
test_result = "Not Active"

[[record]]
compound = "CCc1ccc(CCOc2ccc(CC3SC(=O)NC3=O)cc2)nc1 (stereo not drawn)"
assay_readout = "IC50"
test_result = "Not Active"

[[record]]
compound = "COc1ccnc(C[S+]([O-])c2nc3ccc(OC(F)F)cc3[nH]2)c1OC (stereo not drawn)"
assay_readout = "IC50"
test_result = "Not Active"

[[record]]
compound = "O=C(O)CC(O)(CC(=O)O)C(=O)O"
assay_readout = "IC50"
test_result = "Not Active"

[[record]]
compound = "CC(C)c1c(C(=O)Nc2ccccc2)c(-c2ccccc2)c(-c2ccc(F)cc2)n1CC[C@@H](O)C[C@@H](O)CC(=O)O"
assay_readout = "IC50"
test_result = "Not Active"

[[record]]
compound = "CC1=NN(c2ccccc2)C(=O)C1"
assay_readout = "IC50"
test_result = "Not Active"

[[record]]
compound = "O=C(O)CCNC(=O)c1ccc(/N=N/c2ccc(O)c(C(=O)O)c2)cc1 [BALSALAZIDE]"
assay_readout = "IC50"
test_result = "Not Active"

[[record]]
compound = "CN1CCN(C(c2ccccc2)c2ccccc2)CC1"
assay_readout = "IC50"
test_result = "Not Active"

[[record]]
compound = "CN(C)CCC=C1c2ccccc2CCc2ccccc21"
assay_readout = "IC50"
test_result = "Not Active"

[[record]]
compound = "NCCCNCCSP(=O)(O)O"
assay_readout = "IC50"
test_result = "Not Active"

[[record]]
compound = "CC(C)(C(=O)O)c1ccc(C(O)CCCN2CCC(C(O)(c3ccccc3)c3ccccc3)CC2)cc1 (stereo not drawn) [FEXOFENADINE]"
assay_readout = "IC50"
test_result = "Not Active"

[[record]]
compound = "CC(=O)OCC(=O)[C@@]1(O)CC[C@H]2[C@@H]3CCC4=CC(=O)CC[C@]4(C)[C@@]3(F)[C@@H](O)C[C@@]21C [FLUDROCORTISONE ACETATE]"
assay_readout = "IC50"
test_result = "Not Active"

[[record]]
compound = "CC(=O)OCC(COC(C)=O)OC(C)=O"
assay_readout = "IC50"
test_result = "Not Active"

[[record]]
compound = "NC(=O)N1c2ccccc2CC(=O)c2ccccc21 [OXCARBAZEPINE]"
assay_readout = "IC50"
test_result = "Not Active"

[[record]]
compound = "CCN(C(C)=O)c1cccc(-c2ccnc3c(C#N)cnn23)c1"
assay_readout = "IC50"
test_result = "Not Active"

[[record]]
compound = "CN(C)C(=O)C(CCN1CCC(O)(c2ccc(Cl)cc2)CC1)(c1ccccc1)c1ccccc1 [LOPERAMIDE]"
assay_readout = "IC50"
test_result = "Not Active"

[[record]]
compound = "Nc1cc(-c2ccncc2)c[nH]c1=O"
assay_readout = "IC50"
test_result = "Not Active"

[[record]]
compound = "CO/N=C(\\C(=O)N[C@@H]1C(=O)N2C(C(=O)O)=C(COC(C)=O)CS[C@H]12)c1csc(N)n1"
assay_readout = "IC50"
test_result = "Not Active"

[[record]]
compound = "CCn1cc(C(=O)O)c(=O)c2cc(F)c(N3CCNC(C)C3)c(F)c21 (stereo not drawn)"
assay_readout = "IC50"
test_result = "Not Active"

[[record]]
compound = "O=C(O)COc1ccc(C(=O)c2cccs2)c(Cl)c1Cl"
assay_readout = "IC50"
test_result = "Not Active"

[[record]]
compound = "O=C(O)c1ccccc1O"
assay_readout = "IC50"
test_result = "Not Active"

[[record]]
compound = "Cc1c(O)cccc1C(=O)N[C@@H](CSc1ccccc1)[C@H](O)CN1C[C@H]2CCCC[C@H]2C[C@H]1C(=O)NC(C)(C)C"
assay_readout = "IC50"
test_result = "Not Active"

[[record]]
compound = "CC(=N)S [THIOACETAMIDE]"
assay_readout = "IC50"
test_result = "Not Active"

[[record]]
compound = "CN(C)C(=N)NC(=N)N"
assay_readout = "IC50"
test_result = "Not Active"


----------
# Measured on: Sodium-dependent dopamine transporter (Homo sapiens, UniProt Q01959)
# Sequence (Q01959 whole entry): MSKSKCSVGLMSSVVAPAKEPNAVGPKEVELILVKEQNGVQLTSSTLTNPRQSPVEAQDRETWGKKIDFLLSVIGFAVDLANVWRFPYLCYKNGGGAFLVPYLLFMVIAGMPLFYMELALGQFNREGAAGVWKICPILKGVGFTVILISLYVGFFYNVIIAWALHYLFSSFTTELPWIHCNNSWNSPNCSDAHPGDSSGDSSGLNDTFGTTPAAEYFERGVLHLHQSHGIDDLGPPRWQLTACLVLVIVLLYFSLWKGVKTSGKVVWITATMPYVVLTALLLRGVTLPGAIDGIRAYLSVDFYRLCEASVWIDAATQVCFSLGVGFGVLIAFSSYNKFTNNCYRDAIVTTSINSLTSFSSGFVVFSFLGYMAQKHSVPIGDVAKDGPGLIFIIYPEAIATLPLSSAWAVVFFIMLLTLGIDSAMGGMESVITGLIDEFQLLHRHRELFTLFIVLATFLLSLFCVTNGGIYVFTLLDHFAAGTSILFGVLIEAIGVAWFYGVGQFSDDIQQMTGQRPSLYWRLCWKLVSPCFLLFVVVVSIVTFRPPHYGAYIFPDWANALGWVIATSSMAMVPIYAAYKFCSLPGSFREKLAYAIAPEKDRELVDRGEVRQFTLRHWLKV
# Test name: DRUGMATRIX: Dopamine Transporter radioligand binding (ligand: [125I] RTI-55)
# Type: cell membranes, CHO-K1, Membrane
# Conditions used: Not Active = under 50% inhibition at 10 µM; read-out: Ki
pKi: −log10 of the molar value.
Assay readout: pKi

[[record]]
compound = "CS(=O)(=O)Nc1ccc([N+](=O)[O-])cc1Oc1ccccc1 [NIMESULIDE]"
assay_readout = "pKi"
test_result = 4.93

[[record]]
compound = "Cc1c(O)cccc1C(=O)N[C@@H](CSc1ccccc1)[C@H](O)CN1C[C@H]2CCCC[C@H]2C[C@H]1C(=O)NC(C)(C)C"
assay_readout = "pKi"
test_result = 4.91

[[record]]
compound = "O=c1c(-c2ccc(O)cc2)coc2cc(O)cc(O)c12 [GENISTEIN]"
assay_readout = "pKi"
test_result = 4.87

[[record]]
compound = "CN1CCN(C(c2ccccc2)c2ccccc2)CC1 [CYCLIZINE]"
assay_readout = "pKi"
test_result = 6.22


----------
# Test name: DRUGMATRIX: Serotonin (5-Hydroxytryptamine) 5-HT3 radioligand binding (ligand: [3H] GR-65630)
# Format: cell membranes, Membrane
# Conditions used: hek293; Not Active = under 50% inhibition at 10 µM
Assay readout: IC50

[[record]]
molecule = "CC1=NN(c2ccccc2)C(=O)C1 [EDARAVONE]"
assay_readout = "IC50"
test_result = "Not Active"

[[record]]
molecule = "C[C@@H]1C/C=C/C=C/C=C/C=C/[C@H](O[C@@H]2O[C@H](C)[C@@H](O)[C@H](N)[C@@H]2O)C[C@@H]2O[C@](O)(C[C@@H](O)C[C@H]3O[C@@H]3/C=C/C(=O)O1)C[C@H](O)[C@H]2C(=O)O [NATAMYCIN]"
assay_readout = "IC50"
test_result = "Not Active"

[[record]]
molecule = "O=C(O)P(=O)(O)O [FOSCARNET]"
assay_readout = "IC50"
test_result = "Not Active"

[[record]]
molecule = "CCCNC(=O)NS(=O)(=O)c1ccc(Cl)cc1 [CHLORPROPAMIDE]"
assay_readout = "IC50"
test_result = "Not Active"

